Tested on: HCT-15 colon
EXPERIMENT NOTES: NCI tumour cell line growth inhibition, 48 h
The reader will find reported TGI values listed item by item below.

MOLECULE: NC12CCC(CC1=O)C2 (stereo not given)
TGI: > 100 µM

Record lookup: for HCT-15 colon, what TGI belongs to O=c1[nH]c(=O)n(C2OC(CO)C(O)C2O)cc1Oc1ccccc1 (stereo not given) ?
> 100 µM

Same question for COc1ccc2nc3cc(Cl)ccc3c(Sc3ccc([N+](=O)[O-])cc3)c2c1 please.
> 100 µM

Same question for CCOC(=O)c1c2c(c(O)c3ccccc3c(O)n(Cc3ccccc3)c1C)C(=O)C=CC2=O please.
> 100 µM

Same question for COC(=O)[C@H](Cc1ccc(OC(C)(C)C)cc1)N[C@H](C)C(=O)N[C@@H](Cc1ccccc1)C(=O)OCc1ccccc1 please.
> 100 µM

Same question for CC(=O)NC(Cc1ccsc1)C(=O)O (stereo not given) please.
> 100 µM

Same question for Clc1ccc(-c2c(C3=NCCCN3)nnn2-c2ccccc2)cc1 please.
> 100 µM

Same question for C[C@@H](Oc1ccc(C(=O)NS(=O)(=O)C(C)(C)C)cc1C(F)(F)F)c1ccc(Oc2ccccc2)cn1 please.
10.5 µM

Same question for C=CCOC(=O)C1=C(CCC[C@@H](C)O[Si](C)(C)C(C)(C)C)N=C(N)N2[C@H](CCO)CC[C@@H]12 please.
32.5 µM

Same question for N/N=c1\c2ccccc2c2cc3c(cc12)/c(=N/N)c1ccccc13 please.
> 100 µM

Same question for COc1ccc(C2C=C(c3ccc4c(c3)OCO4)Oc3c2c(=O)oc2ccccc32)cc1OC (stereo not given) please.
> 100 µM

Same question for COc1cc([N+](=O)[O-])c(OC)cc1-c1nc2sc(Cl)cn2c1/C=N/NC1=NCCN1 please.
2.99 µM

Same question for Cn1c(/C=C/[N+](=O)[O-])cc2ccccc21 please.
11.2 µM

Same question for CC(=O)Nc1nnc(S(C)(=O)=O)s1 please.
> 100 µM

Same question for CCOC(=O)C(NC(=O)c1ccccc1)(Nc1ccc(Cl)cc1C(F)(F)F)C(F)(F)F (stereo not given) please.
> 50.9 µM

Same question for O=C1OCC2=C1C(c1ccc(Cl)c(Cl)c1)c1cc3c(cc1N2CCO)CCC3 (stereo not given) please.
20.3 µM

Same question for CN1CCN(C)C12C=CC=CC21CC1 please.
> 100 µM

Same question for O=c1cn[nH]c(=S)n1/N=C/c1c[nH]c2ccccc12 please.
> 100 µM

Same question for O=c1ssc(Cl)c1Cl please.
> 10 µM

Same question for CN(c1cn(C2CC[C@@H](CO)O2)c(=O)[nH]c1=O)C1CCCCC1 (stereo not given in full) please.
> 100 µM

Same question for CCOC(=O)c1[nH]cc(C)c1-c1ccc2c(-c3ccccc3)nc3ccccc3n12 please.
13.7 µM

These measurements were taken from PubChem BioAssay (NCI).
